Items are presented alongside their recorded IC50.
System: human non-small cell lung cancer A549
Test: growth inhibition on A549 in vitro
Type: cell-based
Details: A549 cells, read-out: growth inhibition effects IC50 (nM) A549
# value in nM; strip the unit string

The cases that follow already have their IC50 on record.
molecule | value.observed
N#C/N=C(\NCCCCCCOc1ccc(Cl)cc1)Nc1ccncc1 [Control 2] | 22
COc1ccccc1OCCCCCCN/C(=N\C#N)Nc1ccncc1 [Control 4] | 9.9

Now take the following molecule into account.
Lookup: Recorded IC50 for N#C/N=C(\NCCCCCCOc1ccccc1OC(F)(F)F)Nc1ccncc1 , please?
Found: 3

###

Test system: human prostate cancer PC-3
Assay: growth inhibition on PC-3 in vitro
Type: cell-based
Details: PC-3 cells, read-out: growth inhibition effects IC50 (nM) PC-3
Text: Human pancreatic cancer AsPC-1; human acute lymphocytic leukemia taxol-resistant cell strain CCRF-CEM/T; human adenocarcinoma of lung NCI-H1975; human pharyngeal squamous cell carcinoma Fadu; human B lymphoma BA25; human B lymphoma BA91; human B lymphoma BA127; human stomach cancer NCI-N87; human non-small cell lung cancer A549; human liver cancer SK-Hep-1; human lung cancer NCI-H460; human prostate cancer PC-3.
Items are presented alongside their recorded IC50.

The cases that follow already have their IC50 on record.
molecule | IC50
N#C/N=C(\NCCCCCCOc1ccccc1OC(F)(F)F)Nc1ccncc1 | 0.2 nM
N#C/N=C(\NCCCCCCOc1ccc(Cl)cc1)Nc1ccncc1 [Control 2] | 2.5 nM

Now take the following molecule into account.
Lookup: Recorded IC50 for COc1ccccc1OCCCCCCN/C(=N\C#N)Nc1ccncc1 [Control 4] , please?
Found: 2.4 nM
